melting point by entry:

Completed entries (count: 4):
Given the entry COc1cc(NC(N)=S)c(Cl)c(OC)c1 , report its measured melting point.
159 to 162 °C

Next up: O=C(C(=O)N(CCO)CCO)c1ccc(OCCOc2ccc3ccccc3c2)cc1
128 to 133 °C

Another: CCOC(=O)C=Cc1cnc(N(Cc2ccc(OC)c(OC)c2)C(=O)OC(C)(C)C)n2nc(-c3ccco3)nc12
124 to 129 °C

Entry to check: COc1cc2c(c3c1OC(C)(C)C3)C(c1ccc(=O)n(-c3ccc4ccccc4n3)c1)=NC(C)(C)C2
191 to 192 °C

Read the next record carefully.
Using the record for NC(=S)c1ncn2c1[C@@H]1CCN1C(=O)c1c(Cl)cccc1-2 , report its melting point.
250 to 253 °C

====

melting point values for the compounds below.

Solved cases below.
Can you look up the measured melting point of Nc1c(Cl)cc(C(O)CNCCCCCCOCCCCc2ncccn2)cc1Cl (stereo not given) for me?
77 to 79 °C

How about COC(=O)c1ccc[nH]c1=O ?
148 to 151 °C

// next record Cc1ccc(-c2c(-c3ccc(S(C)(=O)=O)cc3)cnn(-c3ccc(F)c(F)c3)c2=O)cc1F
204 to 206 °C

Here is the next compound: O=c1ccc2cc([C@H](c3cccc(C(F)(F)F)c3)n3cncn3)ccc2[nH]1
176 °C

How about CC(C)c1cccc(C(C)C)c1NS(=O)(=O)CC(=S)Oc1c(C(C)C)cccc1C(C)C ?
169 to 171 °C

***
Field request: melting point | item: O=C(CCCCCOc1ccc(-c2ccccc2)cc1)NO
151 to 152 °C

Record: CCOC(=O)C1CN(C(=O)OCc2ccccc2)CC1=O (stereo not given)
56.6 to 59.7 °C

What would you report for O=C(Cc1ccc(I)cc1)NC[C@H]1CCCN1CCF ?
96 °C

Then this compound: CN1CCN(CCCCCCCCCOc2ccc3oc(-c4ccccc4)cc(=O)c3c2)CC1
77 to 80 °C

Now consider CN(C)S(=O)(=O)n1c(N)nc2ccc(C(=CCl)c3ccccc3)cc21 .
207 to 215 °C

Follow-up entry: CC(=O)Nc1ccc(OCCN2CCc3ccc([N+](=O)[O-])cc3CC2)cc1C
132 to 134 °C

What about CN1CC(Oc2ccc(Nc3cc(Br)cn(C)c3=O)nc2)C1 ?
100 to 101 °C

====

Endpoint label: melting point

Recorded melting point of CC(C)(C)OC(=O)N1CCC(C(=O)c2ccccc2)CC1 , please.
91 to 93 °C

What do you have for Cc1nc(-c2cccc(-n3cnc4cc(-c5ccoc5)ccc43)c2)cs1 ?
136 to 138 °C

Cool, now CC(=O)OC1CSC(Oc2ccc(I)nc2F)C(OC(C)=O)C1OC(C)=O (stereo unspecified)
234 °C

Moving on to CCOC(=O)c1cc2c(=O)c3cc(C(C)(C)O)ccc3oc2nc1N
263 to 264 °C

Also O=c1nc(-c2ccccc2)c2cc([N+](=O)[O-])ccc2[nH]1 ?
> 300 °C

More entries:
Could you share which melting point value was measured for N#Cc1ccc(OCCCN2CCN(C(CC(=O)O)c3cccnc3)C(=O)C2=O)cc1 (single isomer, unassigned; (-)) ?
199 to 200 °C

Moving on to the next compound: NC(=O)CCCCCCn1cccc1
228 to 233 °C

Lookup CC(=O)OCCn1cnc2c(Cl)nc(Nc3ccccc3)nc21
193 to 194 °C

Next compound up: Cn1ccnc1N1CCC(c2ccc(N)cc2)CC1
187 to 188 °C

How about CCNc1n[nH]c2ccc(C3C(C#N)=C(C)NC(C)=C3C#N)cc12 ?
248 °C

Consider next the compound CCOC(=O)c1n[nH]c(C)c1Cl in the same way.
106 to 107 °C

Can you handle COc1cc(C(=O)Nc2c(C)cc3cn(CC(F)(F)F)nc3c2C(=O)NC(C)C)n(-c2ncccc2Cl)n1 next?
178 to 181 °C

Could you do the same for O=C(NCc1ccc(O)cc1)C12CC3CC(CC(C3)C1)C2 , please?
196 to 198 °C

And the next one, CN(C)C=C(C#N)S(=O)(=O)c1ccccc1 ?
108 to 110 °C

Next record, please: Cc1ccc(CSC[C@H](NC(=O)C(CS)Cc2ccc(-c3ccccc3)cc2)C(=O)O)cc1 (stereo partly specified)
131 to 135 °C

Also CC12CCC3C(=C1CCC2=O)C=CC1=CC(=O)CCC13CO (stereo unspecified) ?
264 to 265 °C

Param item: CCc1nc2c(C)cc(C)nc2n1Cc1ccc(C(c2ccccc2C)C(C(=O)O)C(=O)O)cc1 (stereo unspecified)
160 to 161 °C

Proceed to O=C(O)Cc1ccc(CC2CCCCC2=O)cc1 (stereo unspecified)
71.5 to 72.5 °C

Cool, now COc1ccc2c(c1)-c1c(nn(-c3ccccn3)c1O)CC2
116 to 117 °C

Continue with Cn1c(=O)n(C)c2cc(C(=O)CSCCC(=O)O)ccc21
174 to 176 °C

Also check COC(=O)CNc1cccc(CF)c1
47 to 47.5 °C

====

Endpoint label: melting point

Some compounds with known melting point results, for comparison:
// lookup melting point for CN1CC[C@H](c2ccccc2)[C@H](O)C1 (relative stereo)
95 to 97 °C

Okay, and CC(C)n1nc(-c2c(-c3ccccc3)nn3ccc(OCC(=O)OCc4ccccc4)cc23)ccc1=O ?
174 °C

Let us now turn to CC1(C)CCc2c(N3CCOCC3)nc3sc4c(NCCCN5CCCC5=O)ncnc4c3c2C1
210 °C

Next:
Recorded melting point for O=C(O)Cc1ccc(CNC(=O)C2Cc3ccccc3N2S(=O)(=O)c2ccc(-c3cccc(C(F)(F)F)c3)cc2)c(Cl)c1 (stereo unspecified) , please?
95 to 106 °C

Also CS(=O)(=O)c1cccc(C/C=C(/F)CN2C(=O)c3ccccc3C2=O)c1 ?
124 to 126 °C

Entry to check: Oc1cc2c3c(sc2c(Cl)c1Cl)CCCC3
103 to 105 °C

Entry O=C1C=CC(O)(c2ccccc2)C=C1 please
102 to 103 °C

Next entry: CCOC(=O)[C@H](CCc1ccccc1)N[C@@H](C)C(=O)N1C(=O)N(Cc2ccccc2)C[C@H]1C(=O)O
56 to 57 °C

====

melting point overview

// worked examples, melting point included
I have this compound here, CCCCN1CCC(O)(c2cccc(C(F)(F)F)c2F)CC1 , and I need its recorded melting point.
138 °C

Param item: Cc1sc(N)c(C(=O)c2ccc(Cl)cc2)c1CN(C)Cc1ccccc1
114 to 116 °C

Please answer likewise for CC(C)(C)OC(=O)N1CCc2ccc3ccn(CCO)c3c2CC1
226 to 229 °C

Moving on to the next compound: CCC(=O)N(CC)c1cccc(-c2ccnc3c(C(=O)c4ccco4)cnn23)c1
165 to 167 °C

Next up: CCC(O)c1cc(C)nc(Oc2c(C)cc(C)cc2C)c1C (configuration not stated)
119 to 120 °C

***
Reported melting point, compound CCOC(=O)C1=C(C)NC(=S)N(C(=O)OCC)C1c1ccc(OC)cc1 (configuration not stated) : ____
130 to 132 °C

Item: CC(=O)c1cc(Cl)c(N)cc1F
97 to 98 °C

CCc1cccc(NC(=O)C(C)(C)C)n1 ?
59 to 62 °C

====

Below: a set of entries, each annotated with reported melting point.

Sample records with melting point:
Can you share its melting point? I mean this compound: COc1ccc2cccc(C(CO)CNC(C)=O)c2c1 (stereo unspecified)
136 to 138 °C

Try this compound too: Nc1ccc(C2Nc3ccccc3C(=O)N2c2ccccc2)cc1 (stereo unspecified)
191 °C

Ok, now CC(C)NC(=C1Sc2ccccc2C1=O)c1ccccc1
112 to 113 °C

***
Fill in the blank: the reported melting point of CCSc1nc(=O)[nH]cc1F is ____.
168 °C

Also Ic1cc(I)cc(Cc2cc(I)cc(I)c2)c1 , if possible.
104 to 107 °C

Same for Cc1c(C(=O)O)oc2ccc(Br)c(OC(C)C)c12
182 to 184 °C

====

Catalogue of melting point readings, one per entry.

What value of melting point has been reported for the following molecule? CC1(C)CCN(c2ccc(-c3nc(C(=O)Nc4nccs4)c(-c4ccc(Cl)cc4)[nH]3)cc2)CC1
150 to 154 °C

Another molecule to look at: COC(=O)CC(C(=O)c1cccc(OCc2ccccc2)c1)c1ccccc1 (racemic)
88 to 89 °C

COc1ccc(OC)c(-c2nc3ncccc3[nH]2)c1 ?
235 °C

What would you report for CC(=O)C1(C(=O)N[C@H](C)c2ccccc2)CCC1 ?
57 to 60 °C

And then CCNc1cc(Nc2ccc(OC)cc2)ncn1 , what is it?
190 to 193 °C

More entries:
Fill in: melting point of Nc1nc(SCC2CC2)c2ncn(C3C=CC(CO)C3)c2n1 (stereo not drawn) is ___
125 to 127 °C

And for O=C(NC(Cc1ccccc1)C(=O)O)c1cc2cc(F)ccc2[nH]1 (stereo not drawn) ?
125 to 127 °C

Another molecule: CNC(=S)N(CCN1CCC(Nc2nc3ccccc3n2Cc2ccc(F)cc2)CC1)c1nccs1
188 °C

Then what about the molecule O=S(=O)(Nc1ccc(OCc2ccc3ccccc3n2)cc1)c1ccc(Cl)cc1 ?
125 °C

meta.source: a melting point compilation (Tetko et al.; mined from patent text by program, amines drawn as free bases though some values may be those of a salt)
